// data source = ChEMBL document CHEMBL1154766

Test system: HT-29
Assay: Cytotoxicity against human HT-29 cells after 72 hrs by SRB assay
Assay type: functional
Conditions: HT-29, 72 h
Reported GI50 values for a set of compounds
assayEndpoint: GI50 (nM)

[[record]]
smilesrecord = "COc1cc([C@@H]2c3cc4c(cc3C=C(C=O)[C@H]2C(=O)OC/C=C/c2ccccc2)OCO4)cc(OC)c1OC"
target = "HT-29"
assayendpoint = "GI50"
readoutnumber = 36

[[record]]
smilesrecord = "CCCNCC1=Cc2cc3c(cc2[C@@H](c2cc(OC)c(OC)c(OC)c2)[C@@H]1C(=O)OCc1cc(OC)c(OC)c(OC)c1)OCO3"
target = "HT-29"
assayendpoint = "GI50"
readoutnumber = 2000

[[record]]
smilesrecord = "CCCCCCCOC(=O)[C@@H]1C(C=O)=Cc2cc3c(cc2[C@H]1c1cc(OC)c(OC)c(OC)c1)OCO3"
target = "HT-29"
assayendpoint = "GI50"
readoutnumber = 1000

[[record]]
smilesrecord = "COc1cc([C@@H]2c3cc4c(cc3C=C(C=O)[C@H]2C(=O)OCCCBr)OCO4)cc(OC)c1OC"
target = "HT-29"
assayendpoint = "GI50"
readoutnumber = 140

